# target.entity: T1, interleukin 18 binding protein (IL-18BP) (UniProt O95998 31-194)
# T1 sequence (looked up): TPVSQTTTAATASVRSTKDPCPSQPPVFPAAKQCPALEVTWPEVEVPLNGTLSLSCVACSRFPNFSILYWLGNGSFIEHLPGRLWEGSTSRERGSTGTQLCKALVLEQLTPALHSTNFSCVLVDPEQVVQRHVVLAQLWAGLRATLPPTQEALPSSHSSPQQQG
# experimental.details: cell-based or functional assay
measurement.type: Ratio (-BP/+BP), DF-10000
Write the number on its own, no unit after it.

Previously resolved entries follow.
>  <binder>
IL-18 variant T34L, S36V, D40A, N41S, K53G, S55W (ligand) YFGKLESKLSVIRNLNDQVLFIDQGNRPLFEDMLDVDMRASAPRTIFIISMYGDWQPRGMAVTISVKSEKISTLSSENKIISFKEMNPPDNIKDTKSDIIFFQRSVPGHDNKMQFESSSYEGYFLASEKERDLFKLILKKEDELGDRSIMFTVQNED

>  <Ratio (-BP/+BP), DF-10000>
1.81

$$$$
>  <binder>
IL-18 variant K53H, S55M (ligand) YFGKLESKLSVIRNLNDQVLFIDQGNRPLFEDMTDSDMRDNAPRTIFIISMYHDMQPRGMAVTISVKSEKISTLSSENKIISFKEMNPPDNIKDTKSDIIFFQRSVPGHDNKMQFESSSYEGYFLASEKERDLFKLILKKEDELGDRSIMFTVQNED

>  <Ratio (-BP/+BP), DF-10000>
1.12

$$$$

Note: attention shifts to another entry.
Lookup: # query: Ratio (-BP/+BP), DF-10000 of entry IL-18 variant K8R, L9G, S10C, K53G, S55A, R104G (ligand) YFGKLESRGCVIRNLNDQVLFIDQGNRPLFEDMTDSDMRDNAPRTIFIISMYGDAQPRGMAVTISVKSEKISTLSSENKIISFKEMNPPDNIKDTKSDIIFFQGSVPGHDNKMQFESSSYEGYFLASEKERDLFKLILKKEDELGDRSIMFTVQNED
Found: 0.88
